tested on: human cytomegalovirus; experiment: CMV antiviral susceptibility assay: HCMV DNA by nucleic acid hybridization in infected MRC-5 cells (Tables I and II); assay type: cell-based; settings: Human betaherpesvirus 5, MRC5, 120 h; HCMV-infected MRC-5 cells, HCMV DNA after five days; mean ± S.D. (n)
Measured parameter: IC50 (µM)
Numeric only. Scale: µM

What value of IC50 has been reported for the following compound? CCCCCCCCCCCCCCCCCCOC[C@H](COP(=O)(O)C(=O)OCC)OCc1ccccc1 [BB--PFA--OEt]
2.9

What value of IC50 has been reported for the following compound? CCCCCCCCCCCCCCCCCCOC[C@H](COP(=O)(O)C(=O)O)OC [MB--PFA]
0.64

What value of IC50 has been reported for the following compound? O=C(O)CP(=O)(O)O [PAA, phosphonoacetic acid]
22

What value of IC50 has been reported for the following compound? CCCCCCCCCCCCCCCCCCOC[C@H](COP(=O)(O)C(=O)O)OCc1ccccc1 [BB--PFA]
0.64

What value of IC50 has been reported for the following compound? CCCCCCCCCCCCCC(=O)OC[C@H](COP(=O)(O)C(=O)O)OC(=O)CCCCCCCCCCCCC [DMG--PFA]
125

What value of IC50 has been reported for the following compound? CCCCCCCCCCCCCCCCCCOC[C@H](COP(=O)(O)CC(=O)OCC)OC [MB--PAA--OEt]
6.7

What value of IC50 has been reported for the following compound? CCCCCCCCCCCCCC(=O)OC[C@H](COP(=O)(O)C(=O)OCC)OC(=O)CCCCCCCCCCCCC [DMG--PFA--OEt]
30

What value of IC50 has been reported for the following compound? CCCCCCCCCCCCCCCCCCOC[C@H](COP(=O)(O)CC(=O)O)OC [MB--PAA]
0.61

Others:
What value of IC50 has been reported for the following compound? CCCCCCCCCCCCCC(=O)OC[C@H](COP(=O)(O)CC(=O)OCC)OC(=O)CCCCCCCCCCCCC [DMG--PAA--OEt]
108

What value of IC50 has been reported for the following compound? CCCCCCCCCCCCCCCCCCOC[C@H](COC(=O)CP(=O)(O)O)OCc1ccccc1 [BB--(C)--PAA]
1.4

----------
Each record here notes measured CC50.
Test: in vitro
Type: cell-based, human
Settings: human, mrc-5 cells
Procedure: The cytotoxicity of B-PFA and B-PAA in subconfluent MRC-5 cells was assessed by trypan blue exclusion.

What value of CC50 has been reported for the following compound? CCCCCCCCCCCCCCCCCCOC[C@@H](O)COP(=O)(O)CC(=O)O
32 to 100 µM

Now take the following compound into account.
What value of CC50 has been reported for the following compound? CCCCCCCCCCCCCCCCCCOC[C@@H](O)COP(=O)(O)C(=O)O
> 1000 µM

----------
test system: human cytomegalovirus; test: CMV antiviral susceptibility assay: HCMV DNA by nucleic acid hybridization in infected MRC-5 cells (Tables I and II); type: cell-based; conditions: HCMV; phosphonoformate series, versus PFA
Measured parameter: fold increase in activity (fold)
Numeric only. Scale: fold

What value of fold increase in activity has been reported for the following compound? CCCCCCCCCCCCCCCCCCOC[C@@H](O)COP(=O)(O)C(=O)O [B--PFA]
107

What value of fold increase in activity has been reported for the following compound? CCCCCCCCCCCCCCCCCCOC[C@H](COP(=O)(O)C(=O)OCC)OCc1ccccc1 [BB--PFA--OEt]
16

What value of fold increase in activity has been reported for the following compound? CCCCCCCCCCCCCCCCCCOC[C@H](COP(=O)(O)C(=O)O)OC [MB--PFA]
72
